Test system: Mus musculus
Test: Neurobehavioral effect on Swiss Webster mouse assessed as locomotor activity measured as total number of interruptions at 10 mg/kg, ip monitored for 30 mins (reference value: 2091 +/- 209.3) by mouse tetrad assay
Type: functional
# binarize Activity: threshold 300 inclusive, high side Yes, low side No

{"columns": ["MOLECULE", "CATEGORY_LABEL"],
 "data": [
  ["CCCCCc1cc(O)c2c(c1)OC(C)(C)[C@@H]1CCC(C)=C[C@@H]21 [DRONABINOL]", "No"],
  ["CCCCCc1cc(O)c2c(c1)OC(C)(C)[C@@H]1CC=C(C)[C@@H](O)[C@@H]21", "Yes"],
  ["CCCCCc1cc(O)c2c(c1)OC(C)(C)[C@@H]1C[C@@H](O)C(C)=C[C@@H]21", "Yes"],
  ["CCCCCc1cc(O)c2c(c1)OC(C)(C)[C@@H]1CC=C(C)[C@H](O)[C@@H]21", "No"]
]}
